# Test system: S. epidermidis ATCC 12228
# Experiment Description: In vitro antimicrobial activity (MIC), standard dilution test
# Format: cell-based
# Applied Conditions: inoculum about 10^4 CFU/ml, 18-24 h at 37° C.
Property: MIC (µg/mL)
Give bare numbers, in µg/mL.

Answered examples (2):
Compound | Unit String | MIC
NC1C(=O)NC2Cc3ccc(c(Cl)c3)Oc3cc4cc(c3O)Oc3ccc(cc3Cl)CC3=NC(=O)C(NC(=O)C4NC(=O)C(NC2=O)c2cc(O)cc(c2)Oc2cc1ccc2O)c1ccc(O)c(c1)-c1c(O)cc(O)cc1C(C(=O)O)NC3=O (stereo not shown) | µg/mL | 0.12
NC1C(=O)NC2Cc3ccc(c(Cl)c3)Oc3cc4cc(c3O)Oc3ccc(cc3Cl)CC3=NC(=O)C(NC(=O)C4NC(=O)C(NC2=O)c2cc(O)cc(c2)Oc2cc1ccc2O)c1ccc(O)c(c1)-c1c(O[C@H]2O[C@H](CO)[C@@H](O)[C@H](O)[C@@H]2O)cc(O)cc1C(C(=O)O)NC3=O (stereo partly shown) | µg/mL | 0.5

Hi there! I need MIC for each item below, if you can.
1. NC1C(=O)NC2Cc3ccc(c(Cl)c3)Oc3cc4cc(c3O)Oc3ccc(cc3Cl)C=C3NC(=O)C(NC(=O)C4NC(=O)C(NC2=O)c2cc(O)cc(c2)Oc2cc1ccc2O)c1ccc(O)c(c1)-c1c(O)cc(O)cc1C(C(=O)O)NC3=O (single isomer, unassigned) [Compound V]
2. NC1C(=O)NC2Cc3ccc(c(Cl)c3)Oc3cc4cc(c3O)Oc3ccc(cc3Cl)C=C3NC(=O)C(NC(=O)C4NC(=O)C(NC2=O)c2cc(O)cc(c2)Oc2cc1ccc2O)c1ccc(O)c(c1)-c1c(O)cc(O)cc1C(C(=O)O)NC3=O (single isomer, unassigned) [Compound IV]

(A)
1. 0.4
2. 0.12
